Entry source: patent US20100150834A1

Target: EphB2 (receptor of Table 1)
Experiment: EphB receptor specificity panel (% binding)
Everything with % Binding lower than 10% is No; everything else, including exactly 10%, is Yes.

WPPHWPRSLDYA (Panned on EphB2) [WPPHWPRSLDYA peptide (SEQ ID NO:17)] = Yes

Task item: Is the recorded value of % Binding equal to or greater than 10% for this binder? GPVSKAWQETET (Panned on EphB4) [GPVSKAWQETET peptide (SEQ ID NO:31)]
Reply: Yes

Task item: Is the recorded value of % Binding equal to or greater than 10% for this binder? EFFTWRPTYYGI (Panned on EphB4) [EFFTWRPTYYGI peptide (SEQ ID NO:23)]
Reply: Yes

Task item: Is the recorded value of % Binding equal to or greater than 10% for this binder? SHVGPIMRAWAP (Panned on EphB4) [SHVGPIMRAWAP peptide (SEQ ID NO:28)]
Reply: No

Task item: Is the recorded value of % Binding equal to or greater than 10% for this binder? GPVHRAWEPTSH (Panned on EphB4) [GPVHRAWEPTSH peptide (SEQ ID NO:29)]
Reply: No

Task item: Is the recorded value of % Binding equal to or greater than 10% for this binder? WGIPRAAQVMWT (Panned on EphB4) [WGIPRAAQVMWT peptide (SEQ ID NO:33)]
Reply: Yes

Task item: Is the recorded value of % Binding equal to or greater than 10% for this binder? DHWRVSPYSLLY (Panned on EphB2) [DHWRVSPYSLLY peptide (SEQ ID NO:13)]
Reply: Yes

Task item: Is the recorded value of % Binding equal to or greater than 10% for this binder? EWYMKFPPEHYF (Panned on EphB4) [EWYMKFPPEHYF peptide (SEQ ID NO:19)]
Reply: Yes
